# tgt: EGFRΔ19del/T790M/C797S (Homo sapiens, UniProt P00533, T790M/C797S, form not given)
# Sequence (P00533 with tags, fused parts or gaps DEL746-750/T790M/C797S, form open): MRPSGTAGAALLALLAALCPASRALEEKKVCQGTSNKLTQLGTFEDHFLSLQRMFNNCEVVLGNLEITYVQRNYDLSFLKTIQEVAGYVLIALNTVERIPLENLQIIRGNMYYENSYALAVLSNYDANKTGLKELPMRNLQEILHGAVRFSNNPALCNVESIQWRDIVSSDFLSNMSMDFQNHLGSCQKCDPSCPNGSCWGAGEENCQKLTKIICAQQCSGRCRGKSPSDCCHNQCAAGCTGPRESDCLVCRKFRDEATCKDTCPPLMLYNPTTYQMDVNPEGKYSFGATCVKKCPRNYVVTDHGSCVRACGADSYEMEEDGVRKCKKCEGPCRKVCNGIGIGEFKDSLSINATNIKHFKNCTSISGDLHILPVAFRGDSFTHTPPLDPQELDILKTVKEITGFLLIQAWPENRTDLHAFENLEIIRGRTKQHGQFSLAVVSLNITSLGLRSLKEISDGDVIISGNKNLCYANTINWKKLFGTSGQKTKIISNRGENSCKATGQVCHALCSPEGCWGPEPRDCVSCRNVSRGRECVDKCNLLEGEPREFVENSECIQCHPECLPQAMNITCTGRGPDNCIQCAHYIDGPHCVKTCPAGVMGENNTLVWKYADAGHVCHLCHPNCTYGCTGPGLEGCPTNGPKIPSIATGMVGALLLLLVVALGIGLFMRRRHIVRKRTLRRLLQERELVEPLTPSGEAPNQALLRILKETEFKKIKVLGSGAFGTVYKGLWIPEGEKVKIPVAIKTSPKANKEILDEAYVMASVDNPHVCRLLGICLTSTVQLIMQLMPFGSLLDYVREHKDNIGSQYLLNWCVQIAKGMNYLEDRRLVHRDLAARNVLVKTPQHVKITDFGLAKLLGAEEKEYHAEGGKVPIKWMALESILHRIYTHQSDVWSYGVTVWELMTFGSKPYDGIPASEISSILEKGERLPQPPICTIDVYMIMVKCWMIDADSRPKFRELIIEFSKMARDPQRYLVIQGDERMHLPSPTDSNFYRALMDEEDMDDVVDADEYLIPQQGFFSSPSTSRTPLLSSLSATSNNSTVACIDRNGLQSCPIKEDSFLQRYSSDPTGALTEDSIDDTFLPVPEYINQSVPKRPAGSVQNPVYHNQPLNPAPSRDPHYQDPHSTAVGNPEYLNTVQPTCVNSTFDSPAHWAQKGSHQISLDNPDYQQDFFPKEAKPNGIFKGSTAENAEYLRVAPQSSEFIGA
# test-protocol: EGFR Δ19del/T790M/C797S kinase test (mobility variation analysis, Caliper EZ Reader)
# test-parameters: kinase enzymatic activity, Table 1
pIC50: −log10 of the molar value.
assay-endpoint: pIC50

A = CCc1cc(Nc2ncc(Br)c(Nc3ccc(-c4ncsc4C)cc3P(C)(C)=O)n2)c(OC)cc1N1CCC(N2CCN(C)CC2)CC1
B = COc1cc(Nc2ncc(Br)c(Nc3ccc(-c4cnn(C)n4)c(F)c3P(C)(C)=O)n2)c(C)cc1N1CCOCC1
C = CCc1cc(Nc2ncc(Br)c(Nc3ccc(-c4cnn(C)n4)c(F)c3P(C)(C)=O)n2)c(OC)cc1N1CCC(N2CCN(C)CC2)CC1 [Compound K-007]
Rank the molecules listed above in increasing order of pIC50. To answer, arrange all of the labels according to the requested order. A, B, C

A = CCc1cc(Nc2ncc(Br)c(Nc3ccc(-c4nn(C)c5ncccc45)cc3P(C)(C)=O)n2)c(OC)cc1N1CCC(N(C)C)CC1
B = CCn1cc(-c2cc(Nc3ncc(Br)c(Nc4ccc(-c5nn(C)c6ncccc56)cc4P(C)(C)=O)n3)c(OC)cc2N2CCC(N3CCN(C)CC3)CC2)cn1
C = COc1cc(Nc2ncc(Br)c(Nc3ccc(-c4cnn(C)n4)c(F)c3P(C)(C)=O)n2)c(C)cc1N1CCC(N2CCN(C)CC2)CC1
D = CCc1cc(Nc2ncc(Br)c(Nc3ccc(-c4ccc(OC)s4)cc3P(C)(C)=O)n2)c(OC)cc1N1CCC(N2CCN(C)CC2)CC1
Order these by pIC50, descending, and give the full ranking. To answer, arrange all of the labels according to the requested order. C, B, A, D

P = CCc1cc(Nc2ncc(Br)c(Nc3ccc(-c4ccc(OC)cn4)cc3P(C)(C)=O)n2)c(OC)cc1N1CCC(N2CCN(C)CC2)CC1
Q = CCc1cc(Nc2ncc(Br)c(Nc3ccc(-n4cc(C)cn4)cc3P(C)(C)=O)n2)c(OC)cc1N1CCC(N2CCN(C)CC2)CC1 [Compound 86]
Could you tell me which of these two has the smaller pIC50 figure? First: P Second: Q Answer by stating the label of the chosen item. Q

I = CCc1cc(Nc2ncc(Cl)c(Nc3ccc(-c4nccc(OC)n4)cc3P(C)(C)=O)n2)c(OC)cc1N1CCC(N2CCN(C)CC2)CC1
II = COc1cc(Nc2ncc(Br)c(Nc3ccc(-c4cnn(C)n4)cc3P(C)(C)=O)n2)c(C)cc1N1CCC(N2CCOCC2)CC1
// max by pIC50 over [ I , II ] Answer by stating the label of the chosen item. II

----------
# tgt: IGF1R (Homo sapiens, UniProt P08069)
# Sequence (P08069 31-1367, species assumed): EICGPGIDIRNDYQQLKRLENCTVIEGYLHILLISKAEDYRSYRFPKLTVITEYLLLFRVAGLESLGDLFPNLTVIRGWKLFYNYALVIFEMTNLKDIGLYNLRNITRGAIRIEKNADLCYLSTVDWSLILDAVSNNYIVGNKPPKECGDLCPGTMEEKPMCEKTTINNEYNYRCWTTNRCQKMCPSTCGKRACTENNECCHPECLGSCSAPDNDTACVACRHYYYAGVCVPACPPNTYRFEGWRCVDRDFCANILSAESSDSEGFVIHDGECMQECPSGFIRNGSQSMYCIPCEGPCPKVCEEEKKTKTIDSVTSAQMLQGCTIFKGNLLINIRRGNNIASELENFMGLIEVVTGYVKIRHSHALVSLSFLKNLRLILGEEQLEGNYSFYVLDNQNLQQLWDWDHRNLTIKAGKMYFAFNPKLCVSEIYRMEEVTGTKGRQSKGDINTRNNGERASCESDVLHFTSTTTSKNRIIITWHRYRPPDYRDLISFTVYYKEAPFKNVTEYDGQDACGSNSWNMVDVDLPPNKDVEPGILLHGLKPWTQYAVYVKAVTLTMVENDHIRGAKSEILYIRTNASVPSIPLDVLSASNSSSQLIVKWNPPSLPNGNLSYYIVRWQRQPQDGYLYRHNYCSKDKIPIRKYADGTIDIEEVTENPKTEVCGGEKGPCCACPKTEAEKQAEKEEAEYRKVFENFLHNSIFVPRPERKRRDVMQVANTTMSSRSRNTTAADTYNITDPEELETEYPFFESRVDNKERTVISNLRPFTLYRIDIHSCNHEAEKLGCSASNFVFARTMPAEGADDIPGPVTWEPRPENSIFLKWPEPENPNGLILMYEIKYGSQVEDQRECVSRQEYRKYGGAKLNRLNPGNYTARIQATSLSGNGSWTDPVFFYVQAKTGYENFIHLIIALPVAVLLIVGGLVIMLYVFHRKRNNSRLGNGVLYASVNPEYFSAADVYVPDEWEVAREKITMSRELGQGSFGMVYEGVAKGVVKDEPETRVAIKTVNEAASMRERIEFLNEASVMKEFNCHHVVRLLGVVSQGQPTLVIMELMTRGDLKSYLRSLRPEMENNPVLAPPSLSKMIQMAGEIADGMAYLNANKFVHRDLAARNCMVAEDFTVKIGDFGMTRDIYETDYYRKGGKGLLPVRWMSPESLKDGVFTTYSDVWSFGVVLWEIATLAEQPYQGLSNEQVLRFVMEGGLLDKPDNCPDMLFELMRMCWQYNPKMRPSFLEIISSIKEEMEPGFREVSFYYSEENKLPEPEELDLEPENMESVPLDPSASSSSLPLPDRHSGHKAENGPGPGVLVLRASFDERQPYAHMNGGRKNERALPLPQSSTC
assay-endpoint: IC50 (nM)

> print(dat)
                                   compound   val
1  CCc1cc(Nc2ncc(Cl)c(Nc3ccc(-c4nn(C)cc4C#N)cc3P(C)(C)=O)n2)c(OC)cc1N1CCC(N2CCN(C)CC2)CC1   196
2  COc1cc(N2CCC(N3CCN(C)CC3)CC2)c(C)cc1Nc1ncc(Br)c(Nc2ccc(-c3cnn(C)n3)cc2P(C)(C)=O)n1   120
3  COc1cc(Nc2ncc(Br)c(Nc3ccc(-c4nccs4)cc3P(C)(C)=O)n2)c(C)cc1N1CCOCC1  71.1
4  CCc1cc(Nc2ncc(Br)c(Nc3ccc(-c4cn(C)c5ncccc45)cc3P(C)(C)=O)n2)c(OC)cc1N1CCC(N2CCN(C)CC2)CC1   628
5  COc1cnn(-c2ccc(Nc3nc(Nc4cc(C)c(N5CCN(C6CCCC6)CC5)cc4OC)ncc3Br)c(P(C)(C)=O)c2)c1   259
6  CCc1cc(Nc2ncc(Br)c(Nc3ccc(-c4cn(C)cn4)cc3P(C)(C)=O)n2)c(OC)cc1N1CCC(N2CCN(C)CC2)CC1   663

1 = CCc1cc(Nc2ncc(Br)c(Nc3ccc(-c4cn(C)c5cccnc45)cc3P(C)(C)=O)n2)c(OC)cc1N1CCC(N2CCN(C)CC2)CC1
2 = COc1cc(N2CCOCC2)c(C#N)cc1Nc1ncc(Br)c(Nc2ccc(-c3nccs3)cc2P(C)(C)=O)n1
3 = COc1cnn(-c2ccc(Nc3nc(Nc4cc(OC)c(N5CCN(C)CC5)cc4C)ncc3Br)c(P(C)(C)=O)c2)c1
4 = CCc1cc(Nc2ncc(Br)c(Nc3ccc(-c4ccc(OC)s4)cc3P(C)(C)=O)n2)c(OC)cc1N1CCC(N2CCN(C)CC2)CC1
Order these by IC50, descending, and give the full ranking. To answer, arrange all of the labels according to the requested order. 1, 2, 4, 3
(1: 1170 nM, 2: 364 nM, 4: 150 nM, 3: 39.1 nM)

I = CCc1cc(Nc2ncc(Br)c(Nc3ccc(-c4ncsc4C)cc3P(C)(C)=O)n2)c(OC)cc1N1CCC(N2CCN(C)CC2)CC1
II = CCc1cc(Nc2ncc(Br)c(Nc3ccc(-c4ccc(C)cn4)cc3P(C)(C)=O)n2)c(OC)cc1N1CCC(N2CCN(C)CC2)CC1 [Compound K-071]
III = COc1cc(Nc2ncc(Br)c(Nc3ccc(-c4cnn(C)n4)c(F)c3P(C)(C)=O)n2)c(C)cc1N1CCOCC1
IV = CCc1cc(Nc2ncc(Br)c(Nc3ccc(-c4ccccc4)c(C)c3P(C)(C)=O)n2)c(OC)cc1N1CCC(N2CCN(C)CC2)CC1
V = CCc1cc(Nc2ncc(Br)c(Nc3ccc(-c4cnn(C)c4)cc3P(C)(C)=O)n2)c(OC)cc1N1CCC(N(C)C)CC1
List the 5 entries from lowest IC50 to highest IC50 value. To answer, arrange all of the labels according to the requested order. V, III, IV, II, I

A = CCc1cc(Nc2ncc(Br)c(Nc3ccc(-c4cnc(C5CC5)cn4)cc3P(C)(C)=O)n2)c(OC)cc1N1CCC(N2CCN(C)CC2)CC1
B = CCOc1cc(Nc2ncc(Br)c(Nc3ccc(-c4ccc(C)cn4)cc3P(C)(C)=O)n2)c(C)cc1N1CCOCC1
// max by IC50 over [ A , B ] Answer by stating the label of the chosen item. A
(A: 191 nM, B: 48.7 nM)

I = CCc1cc(Nc2ncc(Br)c(Nc3ccc(-c4ncc(F)cn4)cc3P(C)(C)=O)n2)c(OC)cc1N1CCC(N2CCN(C)CC2)CC1
II = CCc1cc(Nc2ncc(Br)c(Nc3ccc(-c4ncc(C)cn4)cc3P(C)(C)=O)n2)c(OC)cc1N1CCC(N2CCN(C)CC2)CC1
// max by IC50 over [ I , II ] Answer by stating the label of the chosen item. II
